# Test system: Gamma-aminobutyric acid receptor subunit alpha-2 (Rattus norvegicus, UniProt P23576)
# Sequence (P23576 whole entry): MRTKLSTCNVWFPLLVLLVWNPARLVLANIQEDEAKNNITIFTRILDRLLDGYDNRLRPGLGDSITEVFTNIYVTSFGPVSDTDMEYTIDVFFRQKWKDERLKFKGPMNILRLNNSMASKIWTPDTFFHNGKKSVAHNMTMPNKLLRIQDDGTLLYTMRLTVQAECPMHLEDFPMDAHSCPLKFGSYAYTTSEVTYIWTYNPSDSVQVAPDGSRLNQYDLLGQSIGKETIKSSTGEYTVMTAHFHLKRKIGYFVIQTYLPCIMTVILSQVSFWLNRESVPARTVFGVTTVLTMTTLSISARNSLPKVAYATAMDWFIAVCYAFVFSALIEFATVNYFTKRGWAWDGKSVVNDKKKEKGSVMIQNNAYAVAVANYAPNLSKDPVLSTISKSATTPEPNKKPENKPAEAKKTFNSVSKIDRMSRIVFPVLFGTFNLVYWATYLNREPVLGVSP
# Test method notes: Agonist activity at rat recombinant GABAA alpha-2-beta-3-gamma-2 receptor expressed in HEK293 cells assessed as normalization of GABA-induced current by whole cell patch-clamp technique
Recorded metric: EC50
I'd appreciate it if you wrote the number followed by its unit.

Task: Return the recorded EC50 value; entry: NCc1n[nH]c(=O)o1
Output: 182 µM
